Just for reference, EPA's ToxValDB 9.5 is where these values come from.

Tested on: Mus musculus
Settings: uterotrophic; duration: 3 days; oral; Active
RESULT TYPE: LEL (mg/kg-day)

COMPOUND	RESULT
C[C@]12CC[C@@H]3c4ccc(O)cc4CC[C@H]3[C@@H]1C[C@@H](O)[C@@H]2O	0.93

(a) O=C(Oc1ccccc1)c1ccccc1O [Phenyl salicylate]
(b) CC/C(=C(/CC)c1ccc(O)cc1)c1ccc(O)cc1
Request: Could you kindly indicate whether a or b has the higher LEL value? Refer to your chosen item by its label in the answer.
Response: a
(a: 33.3 mg/kg-day, b: 0.02 mg/kg-day)

----------
Test system: Rattus norvegicus
Settings: repeat dose other; oral
RESULT TYPE: LOAEL (mg/kg-day)
Express your answer in mg/kg-day, writing the number without its unit.

Request: Given the entry COc1ccc(C(c2ccc(OC)cc2)C(Cl)(Cl)Cl)cc1 , report its measured LOAEL.
Response: 8

----------
Test system: Rattus norvegicus
Conditions: subchronic; oral; gavage; Sprague-Dawley
Overview of reported NOEL across a group of compounds:
Express your answer in mg/kg-day, writing the number without its unit.

COMPOUND	TGT	RESULT
[O-][n+]1ccccc1[S-].[O-][n+]1ccccc1[S-].[Zn+2]	Rattus norvegicus	1
O=C1C=CC(=O)N1c1ccc(Cc2ccc(N3C(=O)C=CC3=O)cc2)cc1 [Bismaleimide]	Rattus norvegicus	1000
Nc1ccc([N+](=O)[O-])cc1Cl	Rattus norvegicus	100
Cc1ccc2[nH]c3cc4c(=O)c5cc(C)ccc5[nH]c4cc3c(=O)c2c1	Rattus norvegicus	1000

# context switch: different compound, same NOEL
Request: Given the entry CC(C)(c1cc(Br)c(OCC(Br)CBr)c(Br)c1)c1cc(Br)c(OCC(Br)CBr)c(Br)c1 (stereo not given) , report its measured NOEL.
Response: 1000

----------
System: Rattus norvegicus
Details: repeat dose other; oral
RESULT TYPE: NOAEL (mg/kg-day)
Express your answer in mg/kg-day, writing the number without its unit.

Worked cases, NOAEL given:
COMPOUND	TGT	NOAEL, mg/kg-day
C=C1C(CCl)(CCl)C2(Cl)C(Cl)C(Cl)C1(Cl)C2(Cl)Cl (stereo not given)	Rattus norvegicus	8
[O]=[Cr][O][Cr]=[O] [Chromium(III) oxide]	Rattus norvegicus	2740
CCC(C)=O	Rattus norvegicus	1770
COc1ccc(C(c2ccc(OC)cc2)C(Cl)(Cl)Cl)cc1	Rattus norvegicus	4

Request: Given the entry Clc1ccc2oc3c(Cl)c(Cl)c(Cl)c(Cl)c3c2c1 , report its measured NOAEL.
Response: 0.048

----------
Overview of reported NOAEL across a group of compounds:
System: Rattus norvegicus
Conditions: subchronic; duration: 90 days; oral; diet; Sprague-Dawley
Express your answer in mg/kg-day, writing the number without its unit.

Worked cases, NOAEL given:
SAMPLE SMILES	RESULT TYPE	RESULT
CC(C)CCCCCCc1ccc(O)cc1	NOAEL	50
Clc1cccc(Cl)c1Cl	NOAEL	9.6

# context switch: different compound, same NOAEL
Request: Given the entry NC(=Nc1ccccc1)Nc1ccccc1 , report its measured NOAEL.
Response: 14.4

----------
Overview of reported LEL across a group of compounds:
Test system: Mus musculus
Conditions: uterotrophic; duration: 1 days; injection; subcutaneous; Active
Express your answer in mg/kg-day, writing the number without its unit.

Request: Given the entry CC(C)(c1ccc(O)cc1)c1ccc(O)cc1 , report its measured LEL.
Response: 10

Request: Given the entry C[C@H]1CCCC(=O)CCC/C=C/c2cc(O)cc(O)c2C(=O)O1 , report its measured LEL.
Response: 5

Request: Given the entry C[C@]12CC[C@@H]3c4ccc(O)cc4CC[C@H]3[C@@H]1C[C@@H](O)[C@@H]2O , report its measured LEL.
Response: 0.0761
